Values from patent US20250074901A1

system-tested: Kv7.2 (Homo sapiens)
Construct: expressed in transfected cells
assay-name: Activation of Kv7.2 (in vitro assay, concentration response curve)
Format: cell-based
condition: Kv7.2 activation max %
endpoint: Emax (%)

compound	system-tested	endpoint	test-value
CC(F)(F)c1cc(CNC(=O)Nc2cccc(Cl)c2)ccn1	Kv7.2 (Homo sapiens)	Emax	51
O=C1CC2CCC(C1)C2NC(=O)NCc1ccnc(OC(F)F)c1 (racemic)	Kv7.2 (Homo sapiens)	Emax	61
O=C(NC(CO)c1ccnc(OC(F)F)c1)N[C@H]1C[C@H](C(F)(F)F)C1 (stereo partly drawn)	Kv7.2 (Homo sapiens)	Emax	82
O=C(NCc1ccnc(OC(F)F)c1)Nc1cccc(F)c1F	Kv7.2 (Homo sapiens)	Emax	53
O=C(NCc1ccnc(OC(F)F)c1)NCC1(F)CCC1	Kv7.2 (Homo sapiens)	Emax	58
O=C(NCc1ccnc(OC(F)F)c1)N[C@H]1CCC(F)(F)C1	Kv7.2 (Homo sapiens)	Emax	58
O=C(Nc1cccc(CF)c1)NC(CO)c1ccnc(OCC(F)(F)F)c1 (stereo not drawn)	Kv7.2 (Homo sapiens)	Emax	47
O=C(NCc1ccnc(C(F)(F)F)c1)N[C@H]1C[C@H](C(F)(F)F)C1	Kv7.2 (Homo sapiens)	Emax	42
O=C(NCc1ccnc(OC(F)F)c1)N[C@H]1C[C@](O)(C(F)(F)F)C1	Kv7.2 (Homo sapiens)	Emax	40
